- TARGET UNDER TEST: Neu5Ac(b2-6)Gal(b1-4)GlcNAc
- ASSAY TEXT: glycan array binding signal (z-score within array); higher = stronger binding
- CONDITION NOTES: glycan notation: IUPAC condensed, linker removed
About 410 targets per protein were measured; listed, in parts, are those with the strongest signals and a random draw of the rest.
Recorded glycan array binding signal (z-score) by entry

BINDER: Clec18A (Homo sapiens) (protein) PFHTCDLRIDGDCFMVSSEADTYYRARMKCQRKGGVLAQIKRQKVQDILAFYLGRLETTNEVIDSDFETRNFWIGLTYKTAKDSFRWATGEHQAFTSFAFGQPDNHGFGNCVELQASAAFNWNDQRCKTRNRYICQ
glycan array binding signal (z-score): 0.965
--
BINDER: AT3G09350(27) (Arabidopsis thaliana), Q84J81 (protein) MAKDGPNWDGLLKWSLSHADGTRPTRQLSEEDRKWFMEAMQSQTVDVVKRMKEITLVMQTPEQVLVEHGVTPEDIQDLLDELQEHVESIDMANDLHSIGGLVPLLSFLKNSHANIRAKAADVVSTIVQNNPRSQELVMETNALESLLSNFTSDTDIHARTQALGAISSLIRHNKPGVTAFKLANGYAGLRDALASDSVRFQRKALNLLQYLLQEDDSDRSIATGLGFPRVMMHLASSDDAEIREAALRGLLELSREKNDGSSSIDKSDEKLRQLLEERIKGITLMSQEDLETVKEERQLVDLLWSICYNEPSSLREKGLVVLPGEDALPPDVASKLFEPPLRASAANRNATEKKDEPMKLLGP
glycan array binding signal (z-score): 0.639
--
BINDER: rCNL (Clitocybe nebularis), B2ZRS9 (protein) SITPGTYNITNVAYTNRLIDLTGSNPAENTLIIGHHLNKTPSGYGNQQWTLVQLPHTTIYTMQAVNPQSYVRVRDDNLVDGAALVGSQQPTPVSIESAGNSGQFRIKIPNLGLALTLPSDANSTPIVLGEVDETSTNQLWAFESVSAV
glycan array binding signal (z-score): -0.31

Data credit: the supplement of paper PMC8728848
